# Assayed Target: Free fatty acid receptor 1 (Homo sapiens, UniProt O14842)
# Sequence (O14842 whole entry): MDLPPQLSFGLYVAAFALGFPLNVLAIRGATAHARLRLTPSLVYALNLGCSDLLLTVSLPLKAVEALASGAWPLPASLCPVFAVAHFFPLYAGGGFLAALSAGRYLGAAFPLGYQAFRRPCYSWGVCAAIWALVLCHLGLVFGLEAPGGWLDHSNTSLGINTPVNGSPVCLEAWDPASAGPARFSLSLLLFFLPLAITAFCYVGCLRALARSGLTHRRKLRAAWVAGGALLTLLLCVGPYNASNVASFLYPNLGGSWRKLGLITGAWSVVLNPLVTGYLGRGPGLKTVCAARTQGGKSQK
# Protocol: Agonist activity at GPR40 (unknown origin) expressed in CHO cells at 5 uM by FLIPR calcium flux assay relative to GW9508
# Type: functional, cell-based
Readout Type: Efficacy (%)
Respond with the bare value in %.

Use the examples below as a reference point.
O=C(O)CCc1ccc(OCc2nc(-c3ccccc3Cl)no2)cc1 :: 61
O=C(O)CCc1ccc(OCc2coc(-c3ccccc3)n2)cc1 :: 98
O=C(O)CCc1ccc(OCc2coc(-c3cccc(Cl)c3)n2)cc1 :: 106

Please give the measured Efficacy for this compound: O=C(O)CCc1ccc(OCc2nc(-c3ccc(Cl)cc3)no2)cc1 84

Please give the measured Efficacy for this compound: CCc1ccc(-c2noc(COc3ccc(CCC(=O)O)cc3)n2)cc1 106

----------
Each item that follows carries a reported solubility kinetic.
# Protocol: Kinetic solubility of the compound in phosphate-buffered saline at pH 7.4 by filter microplate technique
# Format: physicochemical
# Protocol Conditions: read-out: Kinetic_solubility
In your response, the unit should come after the numeric value.

O=C(O)CCc1ccc(OCc2nc(-c3ccc(Cl)cc3)no2)cc1 :: 214 µM
Cc1oc(-c2ccccc2)nc1COc1ccc(CCC(=O)O)cc1 :: 404 µM

Field: next molecule
Please give the measured solubility kinetic for this molecule: Cc1ccc(-c2noc(COc3ccc(CCC(=O)O)cc3)n2)cc1 334 µM

----------
# Assayed Target: UniProtKB O14843
# Sequence (O14843 whole entry): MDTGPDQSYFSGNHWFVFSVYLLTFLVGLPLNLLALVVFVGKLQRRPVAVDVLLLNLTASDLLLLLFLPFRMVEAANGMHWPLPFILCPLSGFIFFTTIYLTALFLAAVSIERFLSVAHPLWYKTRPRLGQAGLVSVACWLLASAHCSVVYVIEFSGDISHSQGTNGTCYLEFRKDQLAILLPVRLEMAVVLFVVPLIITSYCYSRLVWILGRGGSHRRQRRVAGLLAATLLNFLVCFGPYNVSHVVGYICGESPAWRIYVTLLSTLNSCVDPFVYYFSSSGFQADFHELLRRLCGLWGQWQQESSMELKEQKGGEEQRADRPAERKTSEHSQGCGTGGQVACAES
# Protocol: Agonist activity at GPR41 (unknown origin) expressed in CHO cells by FLIPR calcium flux assay in presence of 0.1% bovine serum albumin
Readout Type: EC50

Cc1ccc(-c2noc(COc3ccc(CCC(=O)O)cc3)n2)cc1 :: > 10 µM
O=C(O)CCc1ccc(OCc2nc(-c3ccc(Cl)cc3)no2)cc1 :: > 10 µM

Field: next compound
Please give the measured EC50 for this compound: Cc1oc(-c2ccccc2)nc1COc1ccc(CCC(=O)O)cc1 > 10 µM

----------
# Assayed Target: Free fatty acid receptor 1 (Homo sapiens)
# Protocol: Agonist activity at GPR40 (unknown origin) expressed in CHO cells by FLIPR calcium flux assay in presence of 0.1% bovine serum albumin
Readout Type: EC50 (nM)
Respond with the bare value in nM.

CC(Oc1ccc(CCC(=O)O)cc1)c1nc(-c2ccccc2)no1 (stereo not drawn) :: 2390
O=C(O)CCc1ccc(OCc2nc(-c3cccs3)no2)cc1 :: 2570
O=C(O)CCc1ccc(OCc2nc(-c3ccc(Cl)cc3)no2)cc1 :: 540
O=C(O)CCc1ccc(OCc2nc(-c3cccc(C(F)(F)F)c3)no2)c(Cl)c1 :: 30100

# value lookup — system Free fatty acid receptor 1 (Homo sapiens), readout EC50, item O=C(O)CCc1ccc(OCc2nc(-c3ccc(C(F)(F)F)cc3)no2)cc1 610

# value lookup — system Free fatty acid receptor 1 (Homo sapiens), readout EC50, item CC(Oc1ccc(CCC(=O)O)cc1)c1nc(-c2cccs2)no1 (stereo not drawn) 4000

----------
# Assayed Target: UniProtKB P05177
# Sequence (P05177 whole entry): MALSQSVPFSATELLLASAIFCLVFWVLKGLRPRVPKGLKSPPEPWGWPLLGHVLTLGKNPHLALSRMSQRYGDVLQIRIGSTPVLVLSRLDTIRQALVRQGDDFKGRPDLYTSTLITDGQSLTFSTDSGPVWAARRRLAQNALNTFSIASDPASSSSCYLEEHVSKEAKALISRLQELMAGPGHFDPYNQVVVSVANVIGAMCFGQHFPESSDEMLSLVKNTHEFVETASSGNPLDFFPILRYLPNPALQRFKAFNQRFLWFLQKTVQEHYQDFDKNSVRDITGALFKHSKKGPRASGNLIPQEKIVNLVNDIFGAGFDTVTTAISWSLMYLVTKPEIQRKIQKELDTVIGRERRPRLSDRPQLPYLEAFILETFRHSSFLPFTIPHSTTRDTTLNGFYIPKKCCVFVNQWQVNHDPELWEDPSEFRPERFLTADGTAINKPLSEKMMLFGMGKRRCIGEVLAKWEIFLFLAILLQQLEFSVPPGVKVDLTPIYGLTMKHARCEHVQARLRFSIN
# Protocol: Inhibition of CYP1A2 (unknown origin) at 5 uM by luminescent readout-based method
# Format: ADME
Each item that follows carries a reported inhibition at 5 µM.
Respond with the bare value in %.

Use the examples below as a reference point.
Cc1ccc(-c2noc(COc3ccc(CCC(=O)O)cc3)n2)cc1 :: 13.6
O=C(O)CCc1ccc(OCc2nc(-c3ccc(Cl)cc3)no2)cc1 :: 25.9

Field: next compound
Please give the measured inhibition at 5 µM for this compound: Cc1oc(-c2ccccc2)nc1COc1ccc(CCC(=O)O)cc1 8.9

----------
# Assayed Target: UniProtKB P11712
# Sequence (P11712 whole entry): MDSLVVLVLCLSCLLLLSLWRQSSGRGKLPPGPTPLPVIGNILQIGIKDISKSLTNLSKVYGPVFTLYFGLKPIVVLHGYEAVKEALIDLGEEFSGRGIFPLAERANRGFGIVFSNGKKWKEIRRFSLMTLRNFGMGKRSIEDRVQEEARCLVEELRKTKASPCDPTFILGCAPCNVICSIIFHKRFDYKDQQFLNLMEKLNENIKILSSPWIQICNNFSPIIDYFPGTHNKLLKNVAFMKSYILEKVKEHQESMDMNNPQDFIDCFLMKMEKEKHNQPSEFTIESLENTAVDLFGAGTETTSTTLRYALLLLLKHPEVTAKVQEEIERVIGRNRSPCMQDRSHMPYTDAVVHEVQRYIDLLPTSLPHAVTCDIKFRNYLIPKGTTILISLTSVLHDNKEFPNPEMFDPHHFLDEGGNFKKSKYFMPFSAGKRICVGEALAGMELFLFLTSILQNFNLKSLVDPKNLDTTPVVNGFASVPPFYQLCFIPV
# Protocol: Inhibition of CYP2C9 (unknown origin) at 5 uM by luminescent readout-based method
# Type: ADME
Readout Type: inhibition at 5 µM (%)
Respond with the bare value in %.

Use the examples below as a reference point.
O=C(O)CCc1ccc(OCc2nc(-c3ccc(Cl)cc3)no2)cc1 :: 16.2
Cc1oc(-c2ccccc2)nc1COc1ccc(CCC(=O)O)cc1 :: 10.8

Field: next molecule
Please give the measured inhibition at 5 µM for this molecule: Cc1ccc(-c2noc(COc3ccc(CCC(=O)O)cc3)n2)cc1 4.26

----------
# Assayed Target: CYP2D6 (Homo sapiens, UniProt P10635)
# Sequence (P10635 whole entry): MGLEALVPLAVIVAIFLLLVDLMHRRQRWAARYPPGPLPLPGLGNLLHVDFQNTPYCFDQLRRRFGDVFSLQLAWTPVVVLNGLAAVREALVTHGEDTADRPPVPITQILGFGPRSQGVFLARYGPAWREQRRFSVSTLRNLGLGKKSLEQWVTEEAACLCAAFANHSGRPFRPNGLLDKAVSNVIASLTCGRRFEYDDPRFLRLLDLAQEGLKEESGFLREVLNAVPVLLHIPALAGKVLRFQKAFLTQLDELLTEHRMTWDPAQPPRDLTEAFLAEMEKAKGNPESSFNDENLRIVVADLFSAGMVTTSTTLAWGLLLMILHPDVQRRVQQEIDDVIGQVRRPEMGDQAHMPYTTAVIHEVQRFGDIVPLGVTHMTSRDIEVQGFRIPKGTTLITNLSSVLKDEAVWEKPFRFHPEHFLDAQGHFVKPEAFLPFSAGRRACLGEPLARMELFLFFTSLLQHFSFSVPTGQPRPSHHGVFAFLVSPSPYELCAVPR
# Protocol: Inhibition of CYP2D6 (unknown origin) at 5 uM by luminescent readout-based method
# Format: ADME
Each item that follows carries a reported inhibition at 5 µM.
Respond with the bare value in %.

O=C(O)CCc1ccc(OCc2nc(-c3ccc(Cl)cc3)no2)cc1 :: -5.8

Please give the measured inhibition at 5 µM for this compound: Cc1oc(-c2ccccc2)nc1COc1ccc(CCC(=O)O)cc1 17.7

Please give the measured inhibition at 5 µM for this compound: Cc1ccc(-c2noc(COc3ccc(CCC(=O)O)cc3)n2)cc1 -8.3

----------
Each item that follows carries a reported Efficacy.
# Assayed Target: Free fatty acid receptor 1 (Homo sapiens, UniProt O14842)
# Protocol: Agonist activity at GPR40 (unknown origin) expressed in CHO cells at 5 uM by FLIPR calcium flux assay relative to GW9508
# Format: functional, cell-based
Respond with the bare value in %.

Use the examples below as a reference point.
O=C(O)CCc1ccc(OCc2noc(-c3ccccc3)n2)cc1 :: 42
O=C(O)CCc1ccc(OCc2nc(-c3cccs3)no2)cc1 :: 59
O=C(O)CCc1ccc(OCc2ncc(-c3ccccc3)o2)cc1 :: 58
COc1cccc(-c2noc(COc3ccc(CCC(=O)O)cc3)n2)c1 :: 81
O=C(O)CCc1ccc(OCc2nc(-c3cccc(Br)c3)no2)cc1 :: 130

Please give the measured Efficacy for this compound: Cc1ccc(-c2noc(COc3ccc(CCC(=O)O)cc3)n2)cc1 99

Please give the measured Efficacy for this compound: O=C(O)CCc1ccc(OCc2ncc(-c3cccc(F)c3)o2)cc1 81

Please give the measured Efficacy for this compound: O=C(O)CCc1ccc(OCc2nc(-c3cccc(C(F)(F)F)c3)no2)c(Cl)c1 22

Please give the measured Efficacy for this compound: CC(Oc1ccc(CCC(=O)O)cc1)c1nc(-c2ccc(Cl)cc2)no1 (stereo not drawn) 68

Please give the measured Efficacy for this compound: Cc1cccc(-c2noc(COc3ccc(CCC(=O)O)cc3Cl)n2)c1 54

Please give the measured Efficacy for this compound: O=C(O)CCc1ccc(OCc2nc(-c3cccc(C(F)(F)F)c3)no2)cc1 65

Please give the measured Efficacy for this compound: O=C(O)CCc1ccc(OCc2nc(-c3ccccc3)no2)c(Cl)c1 95

Please give the measured Efficacy for this compound: O=C(O)CCc1ccc(OCc2ncc(-c3cccc(Cl)c3)o2)cc1 30

Please give the measured Efficacy for this compound: O=C(O)CCc1ccc(OCc2nc(-c3ccccc3)no2)cc1 65

Please give the measured Efficacy for this compound: Cc1oc(-c2ccccc2)nc1COc1ccc(CCC(=O)O)cc1 103

Please give the measured Efficacy for this compound: CC(Oc1ccc(CCC(=O)O)cc1)c1nc(-c2ccccc2)no1 (stereo not drawn) 109

Please give the measured Efficacy for this compound: CC(Oc1ccc(CCC(=O)O)cc1)c1nc(-c2cccs2)no1 (stereo not drawn) 94

Please give the measured Efficacy for this compound: O=C(O)CCc1ccc(OCc2nc(-c3ccc(C(F)(F)F)cc3)no2)cc1 73

Please give the measured Efficacy for this compound: O=C(O)Cc1ccc(OCc2nc(-c3cccc(Cl)c3)no2)cc1 69

Please give the measured Efficacy for this compound: O=C(O)CCc1ccc(OCc2coc(-c3cccc(F)c3)n2)cc1 99

Please give the measured Efficacy for this compound: COc1cccc(-c2noc(COc3ccc(CCC(=O)O)cc3Cl)n2)c1 88

Please give the measured Efficacy for this compound: Cc1cc(-c2noc(COc3ccc(CCC(=O)O)cc3)n2)ccc1F 75

Please give the measured Efficacy for this compound: O=C(O)CCc1ccc(OCc2nc(-c3ccc(F)cc3)no2)cc1 66
